Measured concentration at which plasma coagulated in 50 seconds values are reported for all entries that follow.
- Tested on: A20 lymphoma cells (I-A^d positive), mouse or human plasma
- Experimental protocol: In vitro coagulation assay on A20 cells with capture bispecific antibody B21-2/10H10
- Type: cell-based
- Condition: bound via B21-2/10H10 to A20 cells; separate studies per block
Observable: concentration at which plasma coagulated in 50 seconds

{"Molecule": "tTF220-cys-C′: H6-tTF220-cys-C′ without the (His)6 tag (protein) GSGTTNTVAAYNLTWKSTNFKTILEWEPKPVNQVYTVQISTKSGDWKSKCFYTTDTECDLTDEIVKDVKQTYLARVFSYPAGNVESTGSAGEPLYENSPEFTPYLETNLGQPTIQSFEQVGTKVNVTVEDERTLVRRNNTFLSLRDVFGKDLIYTLYYWKSSSSGKKTAKTNTNEFLIDVDKGENYCFSVQAVIPSRTVNRKSTDSPVECMGQEKGEFREIC", "Assay value": "0.5 nM"}
{"Molecule": "H6-tTF219-cys-C′: tTF with (His)6 and a Cys after amino acid 219 (protein) HHHHHHAMALVPRGSGTTNTVAAYNLTWKSTNFKTILEWEPKPVNQVYTVQISTKSGDWKSKCFYTTDTECDLTDEIVKVKQTYLARVFSYPAGNVESTGSAGEPLYENSPEFTPYLETNLGQPTIQSFEQVGTKVNVTVEDRTLVRRNNTFLSLRDVFGKDLIYTLYYWKSSSSGKKTAKTNTNEFLIDVDKGENYCFSVQAVIPSRTVNRKSTDSPVECMGQEKGEFREC", "Assay value": "3 nM"}
